Target: UniProtKB P31749
Assay: Live cell AKT1 WT target engagement by NanoBRET competitive probe displacement
Conditions: HEK293 cells transfected with kinase-NanoLuciferase fusion, 2 h at 37° C.
assay.readout: IC50 (µM)

Solved cases (2 shown):
C=CC(=O)N1C[C@H]2C[C@@H]1CC2N[C@H]1CCc2cc(-n3c(-c4cccnc4N)nc4ccc(-n5cccn5)nc43)ccc21 (single isomer, unassigned) [Example 138] | 0.289
C=CC(=O)Nc1ccccc1C(=O)N[C@H]1CCc2cc(-n3c(-c4cccnc4N)nc4ccc(-n5nccn5)nc43)ccc21 | 0.0158

A. C=CC(=O)N1CCC(N[C@H]2CCc3cc(-n4c(-c5cccnc5N)nc5ccc(-n6cccn6)nc54)ccc32)C(C)C1 (single isomer, unassigned) [Example 99]
B. C=CC(=O)N1CCC(N[C@H]2CCc3cc(-n4c(-c5cccnc5N)nc5ccc(C6CC6)nc54)ccc32)C(F)C1 (mixture of isomers) [Example 175]
// pick min by IC50: A , B Your answer should be the label of the entry you select. A
(A: 0.0334 µM, B: 0.82 µM)

1. C=CC(=O)N1CCC(N[C@H]2CCc3cc(-n4c(-c5cccnc5N)nc5ccc(-n6cccn6)nc54)ccc32)C[C@H]1C (single isomer, unassigned) [Example 63]
2. C=CC(=O)Nc1cc(C(=O)N[C@H]2CCc3cc(-n4c(-c5cccnc5N)nc5ccc(-n6cccn6)nc54)ccc32)ccn1
3. C=CC(=O)N1CCC(CN[C@H]2CCc3cc(-n4c(-c5cccnc5N)nc5ccc(-n6cccn6)nc54)ccc32)CC1
4. C=CC(=O)N1CCC(N[C@H]2CCc3cc(-n4c(-c5cccnc5N)nc5ccc(-n6ccc(C7(F)CC7)n6)nc54)ccc32)CC1
5. C=CC(=O)N1CCC(N[C@H]2CCc3cc(-n4c(-c5cccnc5N)nc5ccc(C6CC6)nc54)ccc32)C(F)C1 (single isomer, unassigned) [Example 176]
Rank ascending by IC50. Put the labels in the order asked and list them. 2, 3, 1, 4, 5
(2: 0.00429 µM, 3: 0.00984 µM, 1: 0.0241 µM, 4: 0.263 µM, 5: 0.967 µM)

I. C=CC(=O)N1CCC(N[C@@H]2c3ccc(-n4c(-c5cccnc5N)nc5ccc(-n6ccc(C7CC7)n6)nc54)cc3CC2F)CC1 (single isomer, unassigned) [Example 298]
II. C=CC(=O)N1CCN(NC2CCc3cc(-n4c(-c5cccnc5N)nc5ccc(-n6cccn6)nc54)ccc32)CC1 (racemic) [Example 77]
Kindly identify the item with the lower IC50 figure among these two: I and II Lab note: record the label of whichever item you select. II
(II: 0.0179 µM, I: 0.294 µM)

---

Molecular target: AKT2 (Homo sapiens, UniProt P31751)
Sequence (P31751 whole entry): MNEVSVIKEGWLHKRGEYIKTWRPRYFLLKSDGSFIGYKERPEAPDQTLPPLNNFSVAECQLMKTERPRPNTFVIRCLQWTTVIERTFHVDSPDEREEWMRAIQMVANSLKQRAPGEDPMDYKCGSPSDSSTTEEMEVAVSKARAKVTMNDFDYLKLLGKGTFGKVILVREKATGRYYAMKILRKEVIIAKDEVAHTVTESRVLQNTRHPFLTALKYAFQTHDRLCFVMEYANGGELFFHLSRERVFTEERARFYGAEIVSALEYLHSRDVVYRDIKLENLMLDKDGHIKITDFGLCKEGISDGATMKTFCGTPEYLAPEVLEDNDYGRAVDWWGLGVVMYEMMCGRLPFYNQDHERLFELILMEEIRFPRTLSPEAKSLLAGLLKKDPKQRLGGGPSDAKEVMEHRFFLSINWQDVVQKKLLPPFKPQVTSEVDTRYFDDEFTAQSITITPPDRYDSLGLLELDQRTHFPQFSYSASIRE
Assay: Live cell AKT2 target engagement by NanoBRET competitive probe displacement
Conditions: HEK293 cells transfected with kinase-NanoLuciferase fusion, 2 h at 37° C.
assay.readout: IC50 (nM)

C=CC(=O)NC1CC(N[C@H]2CCc3cc(-n4c(-c5cccnc5N)nc5ccc(-n6cccn6)nc54)ccc32)C1 (single isomer, unassigned) [Example 89] | 75.2

1. C=CC(=O)N1CCC(N[C@H]2CCc3cc(-n4c(-c5cccnc5)nc5ccc(-n6cccn6)nc54)ccc32)CC1
2. C=CC(=O)N1CCC(N[C@H]2CCc3cc(-n4c(-c5cccnc5N)nc5ccc(-n6cccn6)nc54)ccc32)C(F)C1 (single isomer, unassigned) [Example 105]
Please compare: 1 and 2 . Report which one has the smaller IC50 value. State the label of the item chosen. 2

---

Target: AKT2 (Homo sapiens, UniProt P31751)
Experiment: Live cell AKT2 target engagement by NanoBRET competitive probe displacement
Details: HEK293 cells transfected with kinase-NanoLuciferase fusion, 2 h at 37° C.
assay.readout: IC50 (nM)

C=CC(=O)N1CCC(N[C@H]2CCc3cc(-n4c(-c5cccnc5N)nc5ccc(-n6cccn6)nc54)ccc32)C(C#N)C1 (single isomer, unassigned) [Example 156] | 64.7

I. C=CS(=O)(=O)N1CCC(N[C@H]2CCc3cc(-n4c(-c5cccnc5N)nc5ccc(-n6cccn6)nc54)ccc32)CC1
II. C=C1CCN(c2ccccc2C(=O)N[C@H]2CCc3cc(-n4c(-c5cccnc5N)nc5ccc(-n6cccn6)nc54)ccc32)C1=O
Among I and II , which shows a numerically higher IC50 result? Your answer should be the label attached to the chosen record. II
(II: 252 nM, I: 52.4 nM)

---

Biological target: AKT1 E17K (Homo sapiens, UniProt P31749, E17K)
Sequence (P31749 whole entry E17K): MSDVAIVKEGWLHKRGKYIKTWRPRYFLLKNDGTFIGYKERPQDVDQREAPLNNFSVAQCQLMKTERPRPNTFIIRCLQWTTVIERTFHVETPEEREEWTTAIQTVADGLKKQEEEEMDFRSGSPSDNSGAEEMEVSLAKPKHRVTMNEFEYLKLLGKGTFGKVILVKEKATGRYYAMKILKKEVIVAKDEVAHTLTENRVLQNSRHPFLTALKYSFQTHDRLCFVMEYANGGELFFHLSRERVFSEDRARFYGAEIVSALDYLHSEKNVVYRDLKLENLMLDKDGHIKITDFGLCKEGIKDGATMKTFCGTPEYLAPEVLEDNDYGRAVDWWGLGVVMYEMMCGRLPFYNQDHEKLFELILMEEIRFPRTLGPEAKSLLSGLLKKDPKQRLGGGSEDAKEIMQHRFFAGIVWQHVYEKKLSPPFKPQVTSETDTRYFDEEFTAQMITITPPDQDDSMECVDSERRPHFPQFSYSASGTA
Experiment: Live cell AKT1 E17K target engagement by NanoBRET competitive probe displacement
Details: HEK293 cells transfected with kinase-NanoLuciferase fusion, 2 h at 37° C.
pIC50: −log10 of the molar value.
assay.readout: pIC50

C=CC(=O)N1CCC(N[C@H]2CCc3cc(-n4c(-c5cccnc5N)nc5ccc(N6CC[C@H](F)C6)nc54)ccc32)CC1 | 7.65

I. Nc1ncccc1-c1nc2ccc(-n3cccn3)nc2n1-c1ccc2c(c1)CC[C@@H]2NC1CCN(C(=O)CCl)CC1
II. C=CC(=O)N1CCC(N[C@H]2CCc3cc(-n4c(-c5cccnc5N)nc5ccc(-n6cccn6)nc54)ccc32)C(C#N)C1 (single isomer, unassigned) [Example 156]
Given I and II , report the one with the higher recorded pIC50. Select an item and report its label. II

I. C=CC(=O)N1CC2CC[C@H]1CC2N[C@H]1CCc2cc(-n3c(-c4cccnc4N)nc4ccc(-n5cccn5)nc43)ccc21 (single isomer, unassigned) [Example 134]
II. C=CC(=O)N1CC(F)C(N[C@H]2CCc3cc(-n4c(-c5cccnc5N)nc5ccc(-n6cccn6)nc54)ccc32)C(F)C1 (single isomer, unassigned) [Example 221]
III. C=CC(=O)N1C[C@H]2CCC[C@@H](C1)C2N[C@H]1CCc2cc(-n3c(-c4cccnc4N)nc4ccc(-n5cccn5)nc43)ccc21 (single isomer, unassigned) [Example 188]
IV. C=CC(=O)N1CCC(N[C@H]2CCc3cc(-n4c(-c5cccnc5N)nc5ccc(-n6cccn6)nc54)ccc32)C[C@@H]1C (single isomer, unassigned) [Example 65]
Sort these molecules on pIC50 so the largest reading comes first. Put the labels in the requested order and write them down. III, IV, I, II

a. C=CC(=O)N1CCC(N[C@H]2CCc3cc(-n4c(-c5cccnc5N)nc5cc(-c6ccccn6)cnc54)ccc32)CC1
b. C=C(F)C(=O)NCc1ccccc1C(=O)N[C@H]1CCc2cc(-n3c(-c4cccnc4N)nc4ccc(-n5cccn5)nc43)ccc21
c. C=CC(=O)N1CCC(N[C@@H]2c3ccc(-n4c(-c5ccccc5F)nc5ccc(-n6cccn6)nc54)cc3CC2F)C[C@H]1C (single isomer, unassigned) [Example 319]
// ascending sort on recorded pIC50 Record the ranking as a list of labels in the requested order. a, c, b
(a: 6.61, c: 7.30, b: 7.56)

---

Listing of recorded pIC50 by entry.
Molecular target: AKT2 (Homo sapiens)
Construct: expressed in transfected cells; host or cells: HEK293
Experiment: Live cell AKT2 target engagement by NanoBRET competitive probe displacement
Assay type: cell-based
Settings: HEK293 cells transfected with kinase-NanoLuciferase fusion, 2 h at 37° C.
pIC50: −log10 of the molar value.

C=CC(=O)Nc1cc(C(F)F)ccc1C(=O)N[C@H]1CCc2cc(-n3c(-c4cccnc4N)nc4ccc(-n5cccn5)nc43)ccc21 | < 5.00
C=C(F)C(=O)N1CCC(N[C@H]2CCc3cc(-n4c(-c5cccnc5N)nc5ccc(-n6cccn6)nc54)ccc32)CC1 | < 5.00

Would you kindly share the measured pIC50 for `C=CC(=O)N1CCC[C@@H]1C(=O)N[C@H]1CCc2cc(-n3c(-c4cccnc4N)nc4ccc(-n5cccn5)nc43)ccc21` ? < 5.00

---

Target: AKT2 (Homo sapiens)
Test: Live cell AKT2 target engagement by NanoBRET competitive probe displacement
Details: HEK293 cells transfected with kinase-NanoLuciferase fusion, 2 h at 37° C.
assay.readout: IC50 (nM)

I. C=CC(=O)N1CCC(N[C@H]2CCc3cc(-n4c(-c5cccnc5N)nc5ccc(-c6ccn(C(F)F)n6)nc54)ccc32)CC1
II. C=CC(=O)N1CCC(N[C@H]2CCc3cc(-n4c(-c5cccnc5N)nc5ccc(-n6cccn6)nc54)ccc32)C(C)C1 (single isomer, unassigned) [Example 99]
Given the listed items, does I or II have the lesser reported IC50? Return value: the label identifying the chosen record. I
(I: 192 nM, II: 560 nM)

P. C=CC(=O)N1CCC(N[C@@H]2c3ccc(-n4c(-c5ccccc5)nc5ccc(-n6cccn6)nc54)cc3CC2F)CC1 (single isomer, unassigned) [Example 250]
Q. C=CC(=O)N1CCC(N[C@H]2CCc3cc(-n4c(-c5cccnc5N)nc5ccc(-n6ccc(C7CC7)n6)nc54)ccc32)CC1
Compare the recorded IC50 of P and Q ; state which is larger. In your reply, give the label of the chosen option. P

I. C=CC(=O)N1CCC(NC2CCc3cc(-n4c(-c5cccnc5N)nc5ccc(C6CC6(F)F)nc54)ccc32)CC1 (single isomer, unassigned) [Example 244]
II. C=CC(=O)N1CCC(N[C@H]2CCc3cc(-n4c(-c5cccnc5N)nc5ccc(-c6nnc(C7CC7)s6)nc54)ccc32)CC1
IC50 comparison. Which is larger, I or II ? Lab log: write the label of the selected item as the result. I
(I: 199 nM, II: 45.5 nM)

1. C=CC(=O)N1CCC(N[C@H]2CCc3cc(-n4c(-c5cccnc5N)nc5ccc(N6CC[C@@H](F)C6)nc54)ccc32)CC1
2. C=CC(=O)N1CC2(CC(N[C@H]3CCc4cc(-n5c(-c6cccnc6N)nc6ccc(-n7cccn7)nc65)ccc43)C2)C1
3. C=CC(=O)NC1CCC(N[C@H]2CCc3cc(-n4c(-c5cccnc5N)nc5ccc(-n6cccn6)nc54)ccc32)CC1 (single isomer, unassigned) [Example 47]
4. C=CC(=O)N1CCC(N[C@@H]2c3ccc(-n4c(-c5cccnc5N)nc5ccc(-n6cccn6)nc54)cc3CC2F)C(C)C1 (single isomer, unassigned) [Example 288]
Sort the compounds on IC50; start with the lowest figure. Provide the labels, sequenced as the question asks. 2, 1, 4, 3

a. C=CC(=O)N1CCCC(N[C@H]2CCc3cc(-n4c(-c5cccnc5N)nc5ccc(-n6cccn6)nc54)ccc32)C1 (single isomer, unassigned) [Example 124]
b. C=CS(=O)(=O)Nc1ccccc1C(=O)N[C@H]1CCc2cc(-n3c(-c4cccnc4N)nc4ccc(-n5cccn5)nc43)ccc21
Which value of IC50 is greater, the one for a or the one for b ? Selection: enter the item's label. a
(a: 1120 nM, b: 37.9 nM)
